# Lookup of reported IC50 keyed by entry
- targetOrTestSystem: gamma-secretase (partially purified extract of IMR-32 cell membranes; substrate MBP-C125 Swe fusion protein, cleavage at the Aβ40 site) (Homo sapiens)
- Construct: a partially purified extract of IMR-32 cell membranes as the gamma-secretase enzyme preparation; endogenous in cells; host or cells: IMR-32 cell membranes, partially purified extract
- assaySummary: Gamma-secretase APP enzyme assay (Example A)
- Format: biochemical
- recordedConditions: class symbols; assay described in Example A; read-out: γAPP IC50
- Excerpt: The gamma-secretase APP enzyme assay was designed to measure the specific proteolytic cleavage of an APP substrate (MBP-C125 Swe fusion protein) at the Aβ40 site. […] This assay involved two steps beginning with the enzymatic reaction generating a cleavage product that was captured with an immobilized antibody specific for the neo-epitope Aβ40 site. The captured cleavage product was then detected in a sandwich ELISA assay with a biotinylated reporter antibody that is specific to Aβ(17-28). […]

[
  {
    "compound": "N#Cc1ccc2c(c1)C1Cc3n[nH]cc3C2N1S(=O)(=O)c1ccc(C(F)(F)F)nc1 (single isomer, unassigned) [compound 172]",
    "IC50": "> 1000 nM"
  },
  {
    "compound": "O=S(=O)(c1ccc(C(F)(F)F)nc1)N1C2Cc3[nH]ncc3C1c1cc(Cl)ccc12 (stereo not shown) [compound 222]",
    "IC50": "< 100 nM"
  },
  {
    "compound": "Cn1cc(C2CC3Cc4[nH]ncc4C(C2)N3S(=O)(=O)c2ccc(Cl)cc2)nn1 (single isomer, unassigned) [compound 137]",
    "IC50": "> 1000 nM"
  },
  {
    "compound": "O=S(=O)(c1ccc(C(F)(F)F)cc1)N1C2Cc3[nH]ncc3C1c1cc3c(cc12)OCO3 (racemic)",
    "IC50": "< 100 nM"
  },
  {
    "compound": "O=C1c2[nH]ncc2C2c3ccccc3C1N2S(=O)(=O)c1ccc(C(F)(F)F)cc1 (stereo not shown) [compound 71]",
    "IC50": "< 100 nM"
  },
  {
    "compound": "O=S(=O)(c1ccc(C(F)(F)F)nc1)N1[C@H]2c3cn[nH]c3[C@H](F)[C@@H]1c1cccc(F)c12",
    "IC50": "< 100 nM"
  },
  {
    "compound": "CC(=O)Nc1ccc(C2CC3Cc4[nH]ncc4C(C2)N3S(=O)(=O)c2ccc(C(F)(F)F)cc2)cc1 (racemic)",
    "IC50": "< 100 nM"
  },
  {
    "compound": "O=S(=O)(c1ccc(C(F)(F)F)nc1)N1C2Cc3[nH]ncc3C1c1cc(Br)ccc12 (stereo not shown) [compound 250]",
    "IC50": "< 100 nM"
  },
  {
    "compound": "O=S(=O)(c1ccc(C(F)(F)F)cc1)N1C2Cc3[nH]ncc3C1c1cccc(-c3cccc(C(F)(F)F)c3)c1C2 (racemic)",
    "IC50": "< 100 nM"
  },
  {
    "compound": "O=S(=O)(c1ccc(C(F)(F)F)cc1)N1C2Cc3[nH]ncc3C1c1c2ccc2ccccc12 (stereo not shown) [compound 170]",
    "IC50": "< 100 nM"
  },
  {
    "compound": "Cc1noc(-c2ccc3c(c2)C2c4cn[nH]c4CC3N2S(=O)(=O)c2ccc(C(F)(F)F)nc2)n1 (stereo not shown) [compound 202]",
    "IC50": "> 1000 nM"
  },
  {
    "compound": "O=S(=O)(c1ccc(C(F)(F)F)nc1)N1C2c3c[nH]nc3[C@H](F)C1c1cccc(F)c12 (stereo partly shown)",
    "IC50": "< 100 nM"
  },
  {
    "compound": "O=S(=O)(c1ccc(C(F)(F)F)cc1)N1C2c3c[nH]nc3C(F)(F)C1c1cccc(F)c12 (stereo not shown) [compound 128]",
    "IC50": "< 100 nM"
  },
  {
    "compound": "O=S(=O)(c1ccc(C(F)(F)F)nc1)N1C2c3c[nH]nc3[C@H](O)C1c1cccc(F)c12 (stereo partly shown)",
    "IC50": "> 1000 nM"
  },
  {
    "compound": "O=S(=O)(c1ccc(C(F)(F)F)nc1)N1C2Cc3[nH]ncc3C1c1c(Cl)cccc12 (single isomer, unassigned) [compound 233]",
    "IC50": "< 100 nM"
  },
  {
    "compound": "O=S(=O)(c1ccc(C(F)(F)F)cc1)N1C2Cc3[nH]ncc3C1c1cccnc12 (stereo not shown) [compound 100]",
    "IC50": "< 100 nM"
  },
  {
    "compound": "O=S(=O)(c1ccc(C(F)(F)F)nc1)N1C2Cc3[nH]ncc3C1c1cc(Br)ccc12 (stereo not shown) [compound 251]",
    "IC50": "100 to 499 nM"
  },
  {
    "compound": "O=S(=O)(c1ccc(C(F)(F)F)nc1)N1C2Cc3[nH]ncc3C1c1cc(C3CC3)ccc12 (single isomer, unassigned) [compound 246]",
    "IC50": "> 1000 nM"
  },
  {
    "compound": "O=S(=O)(c1ccc(C(F)(F)F)nc1)N1C2Cc3[nH]ncc3C1c1ccccc12 (stereo not shown) [compound 98]",
    "IC50": "< 100 nM"
  },
  {
    "compound": "O=S(=O)(c1ccc(C(F)(F)F)nc1)N1C2Cc3cccc(Br)c3C1c1cn[nH]c1C2 (stereo not shown)",
    "IC50": "< 100 nM"
  },
  {
    "compound": "O=S(=O)(c1ccc(C(F)(F)F)cc1)N1C2Cc3[nH]ncc3C1C=C2c1ccc(F)cc1 (stereo not shown)",
    "IC50": "100 to 499 nM"
  },
  {
    "compound": "O=S(=O)(c1ccc(C(F)(F)F)nc1)N1C2Cc3cccc(Br)c3[C@@H]1Cc1n[nH]cc12",
    "IC50": "< 100 nM"
  }
]
